Cited source for all entries: PubChem BioAssay AID1159580

Assay: chemical genetic growth profiling, strain panel (AID 1159580);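 further: tested at 20 µM; growth read once vehicle control cultures reached saturation at 30 °C; 1 = growth at the plate median or of vehicle wells; lower values mean less growth of the strain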
Details: S. cerevisiae deletion strains, growth OD, locus YER123W, strain YCK3
Among all 5,500 compounds or so, about 2,000 (36%) were called active. About 18% were inconclusive and are not listed. No stated cut-off is given here; in the data, active means normalized growth mostly below about 0.91 (no sharp cut-off); inconclusive means no clear call, values can overlap the other calls; inactive means mostly above about 0.92. Some of the results follow.
Write down one outcome, taken from active, inactive

# example entries with known answers
structure-smiles-string | class
O=[N+]([O-])c1ccc(-c2noc(-c3ccno3)n2)o1 | active
Fc1cc(I)ccc1Nc1ccnc2cc(Cl)ccc12 | inactive
Cc1ccc(Nc2ccnc3cc(Cl)ccc23)cc1F | inactive
Cc1ccc(S(=O)(=O)NC(=O)Nc2ccc(Sc3ccccc3)nc2Sc2ccccc2)cc1 | inactive
Cc1cccc(NC(=S)N/N=C\c2ccc(F)cc2)c1 | inactive

Asked: Status in this test for N/C(Cn1ccc(C(F)(F)F)n1)=N/OS(=O)(=O)c1cccc(Cl)c1Cl ?
Given back: inactive

---

Assay: chemical genetic growth profiling, strain panel (AID 1159580)
Conditions: S. cerevisiae deletion strains, growth OD, locus YDR335W, strain msn5
In all, about 5,500 compounds went through this assay and about 2,000 (36%) were called active. Inconclusive results (about 18%) are left out. No stated cut-off is given here; in the data, active means normalized growth mostly below about 0.91 (no sharp cut-off); inconclusive means no clear call, values can overlap the other calls; inactive means mostly above about 0.92. The list shows a part of the results.
Write down one outcome, taken from active, inactive

# example entries with known answers
compound | class
O=C(O)/C=C/c1ccc(O)c(O)c1 | inactive
COc1ccc(CN(CCN(C)C)c2ccccn2)cc1 | inactive

Asked: Status in this test for Cc1ccccc1C(OCCN(C)C)c1ccccc1 (configuration not stated) ?
Given back: inactive

Asked: Status in this test for O=C(O)c1cc2cc(F)ccc2[nH]1 ?
Given back: inactive

Asked: Status in this test for O=C(/C=C/c1ccc(O)c(O)c1)OCCc1ccccc1 ?
Given back: active

Asked: Status in this test for CN(C)CCN(Cc1ccccc1)c1ccccn1 ?
Given back: inactive

Asked: Status in this test for CN(C)CCOC(c1ccc(Cl)cc1)c1ccccn1 (configuration not stated) ?
Given back: inactive

Asked: Status in this test for Clc1ccc(C(OCCN2CCCCC2)c2ccccc2)cc1 (configuration not stated) ?
Given back: inactive

Asked: Status in this test for COC(=O)[C@@H]1OC(=O)C2OC23[C@@]1(C)CCC1[C@]2(C)C(C[C@H](O)[C@]13C)C(C)(C)[C@H](OC(C)=O)C[C@@H]2OC(C)=O (some centres not stated) ?
Given back: inactive

---

Assay: chemical genetic growth profiling, strain panel (AID 1159580)
Conditions: S. cerevisiae deletion strains, growth OD, locus YEL061C, strain CIN8, hits give low values
Screen size: about 5,500 compounds; about 2,000 (36%) were called active. About 18% were inconclusive and are not listed. The list shows a part of the results.
Each record here notes measured normalized growth.
Respond using a number only.

Here's what some known entries look like.
compound | normalized growth
O=C1CCC(N2C(=O)c3ccccc3C2=O)C(=O)N1 (configuration not stated) | 1.01
Cn1c(=O)c2c(ncn2CC(O)CO)n(C)c1=O (configuration not stated) | 0.997
Cc1cc(=O)n2[nH]cnc2n1 | 1
COc1cc2nc(N(C)CCCNC(=O)C3CCCO3)nc(N)c2cc1OC (configuration not stated) | 1.01
COc1ccc(C(=O)CC(=O)O)c2c1C=CC(C)(C)O2 | 0.998

Asked: # get_value(readout='normalized growth', item= CCCCCCCCC(=O)NCc1ccc(O)c(OC)c1 )
Given back: 0.998

---

Experiment: chemical genetic growth profiling, strain panel (AID 1159580)
Conditions: S. cerevisiae deletion strains, growth OD, locus YMR125W, strain sto1
Among all 5,500 compounds or so, about 2,000 (36%) were called active. Not shown: some 18% with an inconclusive outcome. No stated cut-off is given here; in the data, active means normalized growth mostly below about 0.91 (no sharp cut-off); inconclusive means no clear call, values can overlap the other calls; inactive means mostly above about 0.92. The list shows a part of the results.
Write down one outcome, taken from active, inactive

# example entries with known answers
molecule | class
COc1cc(CNC(=O)CCCC/C=C/C(C)C)ccc1O | inactive
CCn1cc(C(=O)O)c(=O)c2cc(F)c(N3CCNC(C)C3)c(F)c21 (stereo unspecified) | inactive
O=C(O)/C=C/c1ccc(O)c(O)c1 | inactive

Asked: Status in this test for CCCCCCCCC(=O)NCc1ccc(O)c(OC)c1 ?
Given back: inactive

Asked: Status in this test for COc1cc2nc(N(C)CCCNC(=O)C3CCCO3)nc(N)c2cc1OC (stereo unspecified) ?
Given back: inactive

Asked: Status in this test for C[C@H]1COc2c(N3CCN(C)CC3)c(F)cc3c(=O)c(C(=O)O)cn1c23 ?
Given back: inactive

Asked: Status in this test for O=C(/C=C/c1ccc(O)c(O)c1)OCCc1ccccc1 ?
Given back: active

Asked: Status in this test for COC(=O)[C@@H]1OC(=O)C2OC23[C@@]1(C)CCC1[C@]2(C)C(C[C@H](O)[C@]13C)C(C)(C)[C@H](OC(C)=O)C[C@@H]2OC(C)=O (stereo partly specified) ?
Given back: inactive

Asked: Status in this test for Nc1ncn[nH]1 ?
Given back: inactive

Asked: Status in this test for CC[C@@H](C(=O)C(C)[C@@H](O)[C@H](C)CCc1ccc(C)c(O)c1C(=O)O)C1OC(CC)(C2CC[C@](O)(CC)[C@H](C)O2)C[C@@H]1C (stereo partly specified) ?
Given back: inactive

Asked: Status in this test for O=C(O)c1cc2cc(F)ccc2[nH]1 ?
Given back: inactive

---

Test: chemical genetic growth profiling, strain panel (AID 1159580);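 further: tested at 20 µM; growth read once vehicle control cultures reached saturation at 30 °C; 1 = growth at the plate median or of vehicle wells; lower values mean less growth of the strain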
Conditions: S. cerevisiae deletion strains, growth OD, locus YLR342W, strain FKS1
About 2,000 (36%) of roughly 5,500 compounds were called active. Roughly 18% stayed inconclusive and do not appear here. Cut-off read from the data, not from the text of the source: active = normalized growth mostly below about 0.91 (no sharp cut-off); inconclusive = no clear call, values can overlap the other calls; inactive = mostly above about 0.92. This is one part of the list.
Write down one outcome, taken from 1.0 = active, 0.0 = inactive

molecule | class
C[C@@H]1CC(Cl)CC[C@H]1C(=O)OC(C)(C)C (stereo not given in full) | 0.0
COC(=O)c1cc(=O)c(O)c2c(O)c(O)ccc2c1 | 0.0
CC(=O)Oc1cc(OC(C)=O)c2c(c1)O[C@H](c1ccc(OC(C)=O)c(OC(C)=O)c1)[C@H](OC(C)=O)C2 | 0.0
CC(=O)Oc1cc(OC(C)=O)c2c(c1)O[C@H](c1ccc(OC(C)=O)c(OC(C)=O)c1)[C@@H](OC(C)=O)C2 | 0.0

Continue with the next molecule.
Asked: Status in this test for O=c1cccc2ccc(O)c(O)c2c1O ?
Given back: 1.0

---

Each record here notes measured normalized growth.
Assay: chemical genetic growth profiling, strain panel (AID 1159580);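 further: tested at 20 µM; growth read once vehicle control cultures reached saturation at 30 °C; 1 = growth at the plate median or of vehicle wells; lower values mean less growth of the strain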
Details: S. cerevisiae deletion strains, growth OD, locus YCR088W, strain abp1, hits give low values
About 2,000 (36%) of roughly 5,500 compounds were called active. About 18% were inconclusive and are not listed. The list shows a part of the results.
Respond using a number only.

compound | quantitative-result
CNC(=O)O/N=C(\C)SC | 1
C=C[C@@](C)(O)CCC1C(=C)CCC2[C@@](C)(CO)CCC[C@]12C (stereo partly specified) | 1.06
C=C[C@@](C)(O)CCC1C(=C)C[C@H](O)C2C(C)(C)CCCC12C (stereo partly specified) | 0.99
C=C[C@@](C)(O)CCC1C(=C)C[C@H](OC(C)=O)C2C(C)(C)CCCC12C (stereo partly specified) | 1.04
CN1CC(=O)N=C1N | 1.01

--- query ---
Asked: # get_value(readout='normalized growth', item= c1ccc2c(c1)CCCC2C1=NCCN1 (stereo unspecified) )
Given back: 1.02

---

Assay: chemical genetic growth profiling, strain panel (AID 1159580);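 further: tested at 20 µM; growth read once vehicle control cultures reached saturation at 30 °C; 1 = growth at the plate median or of vehicle wells; lower values mean less growth of the strain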
Conditions: S. cerevisiae deletion strains, growth OD, locus YLR320W, strain mms22
Hit rate of the full screen: of about 5,500 compounds, about 2,000 (36%) were called active. Inconclusive results (about 18%) are left out. Rule as the data show it: active = normalized growth mostly below about 0.91 (no sharp cut-off); inconclusive = no clear call, values can overlap the other calls; inactive = mostly above about 0.92. This is one part of the list.
Write down one outcome, taken from T (active), F (inactive)

Asked: Status in this test for CCCCC/C=C/CCC(=O)N[C@H]1[C@H](Oc2c3cc4cc2Oc2ccc(cc2Cl)[C@@H](O[C@@H]2O[C@H](CO)[C@@H](O)[C@H](O)[C@H]2NC(C)=O)[C@@H]2NC(=O)[C@H](NC(=O)[C@@H]4NC(=O)[C@H]4NC(=O)C(Cc5ccc(c(Cl)c5)O3)NC(=O)[C@H](N)c3ccc(O)c(c3)Oc3cc(O)cc4c3)c3ccc(O)c(c3)-c3c(OC4O[C@H](CO)[C@@H](O)[C@H](O)[C@@H]4O)cc(O)cc3[C@@H](C(=O)O)NC2=O)O[C@H](CO)[C@@H](O)[C@@H]1O (some centres undefined) ?
Given back: F

Asked: Status in this test for COC(=O)c1cc(=O)c(O)c2c(O)c(O)ccc2c1 ?
Given back: F

Asked: Status in this test for OCC(O)CN1CCN(c2ccccc2)CC1 (centres undefined) ?
Given back: F

Asked: Status in this test for C[C@@H]1CC(Cl)CC[C@H]1C(=O)OC(C)(C)C (some centres undefined) ?
Given back: F

Asked: Status in this test for COc1cc([C@@H]2c3cc4c(cc3[C@@H](O)C3COC(=O)C32)OCO4)cc(OC)c1O (some centres undefined) ?
Given back: F
